biological target: T1, human IL-17A (human, UniProt Q16552 24-155); experiment: SPR (Biacore T200), direct setup: IL-17A amine-coupled on CM5, scFv as analyte
T1 construct: Recombinant human IL-17A (Peprotech Cat. No. 200-17), disulfide-linked homodimer from E. coli; Biotinylated or RPE-labelled in some assays; also called hIL-17A; IL-17A-RPE (labelled)
reported.endpoint: kon (M⁻¹ s⁻¹)
Your answer is read as M⁻¹ s⁻¹, so omit the unit and give the number.

Examples with answers:
1) A2 (humanized anti-IL-17A scFv, STR graft of 27-07-G02) (scFv, VL-linker-VH; also called 27-07-G02-sc02) scFv: DIQMTQSPSSLSASVGDRVTITCQASQTINYWLAWYQQKPGKPPKLLIYRASTLASGVPSRFSGSGSGTDFTLTISSLQPEDFATYYCQNYYYSTSRSYGFGGGTKLTVLGGGGGSGGGGSGGGGSGGGGSEVQLVESGGGLVKPEGSLRLSCAASGFSFSSDYWMCWVRQAPGKGLEWIACIYAGDVDDTDYASWARGRFTISRDNSKNTVYLQMNSLRAEDTAVYYCARVDGFDITYFDLWGQGTLVTVSS	1.08e+06
2) A1 (humanized anti-IL-17A scFv, CDR graft of 27-07-G02) (scFv, VL-linker-VH; also called 27-07-G02-sc01; 27_07_G02_sc01) scFv: DIQMTQSPSSLSASVGDRVTITCQASQTINYWLAWYQQKPGKAPKLLIYRASTLASGVPSRFSGSGSGTDFTLTISSLQPEDFATYYCQNYYYSTSRSYGFGGGTKLTVLGGGGGSGGGGSGGGGSGGGGSEVQLVESGGGLVQPGGSLRLSCAASGFSFSSDYWMCWVRQAPGKGLEWIGCIYAGDVDDTDYASWARGRFTISRDNSKNTVYLQMNSLRAEDTAVYYCARVDGFDITYFDLWGQGTLVTVSS	737000
3) PRO571 (humanized anti-IL-17A scFv, CDR graft of 27-31-C04) (scFv, VL-linker-VH; also called 27-31-C04-sc01; 27_31_C04_sc01) scFv: DIQMTQSPSSLSASVGDRVTITCQASESIYRYLSWYQQKPGKAPKLLIYLASTLTSGVPSRFSGSGSGTDFTLTISSLQPEDFATYYCQSNFGTASTTYYNTFGGGTKLTVLGGGGGSGGGGSGGGGSGGGGSEVQLVESGGGLVQPGGSLRLSCAASGFSFSGFYYMCWVRQAPGKGLEWIGCIDTGDGTTYYASWAKGRFTISRDNSKNTVYLQMNSLRAEDTAVYYCARDAAYGGYAYPAHGMDLWGQGTLVTVSS	1.13e+06

Now, please, on to the next binder.
Sure, the documented kon for PRO592 (humanized anti-IL-17A scFv, STR graft of 27-31-C04) (scFv, VL-linker-VH; also called 27-31-C04-sc02; 27_31_C04_sc02) scFv: DIQMTQSPSSLSASVGDRVTITCQASESIYRYLSWYQQKPGKAPKLLIYLASTLTSGVPSRFSGSGSGTDFTLTISSLQPEDFATYYCQSNFGTASTTYYNTFGGGTKLTVLGGGGGSGGGGSGGGGSGGGGSEVQLVESGGGLVQPGGSLTLSCAASGFSFSGFYYMCWVRQAPGKGLEWIGCIDTGDGTTYYASWAKGRFTISRDNSKNTVYLQMNSLRAEDTAVYYCARDAAYGGYAYPAHGMDLWGPGTLVTVSS is 1.08e+06
